Numbers sourced from patent US4835160A.

System: melanoma B 16
test.summary: Test for melanoma B 16
Type: in vivo, BDF1 hybrid mice
applied.conditions: 2.5 mg/kg IP, D1-D9; survival time
Experimental: The antitumour activity was tested in vivo on various tumours inoculated in various ways according to the following general protocol: All the male or female mice are inoculated on day D0 with a known quantity of viable tumour cells for ascitic tumours or with a known tumour fragment for solid tumours. They are then distributed into various groups. Each group, corresponding to the animals treated by the product under test, is made up of 10 mice. […]
Record form. Attribute: T/C %. Fill in for each entry.
Hi! Could you send only the number? It should be in %, unit omitted.

Query (molecule): Cc1cnc(NCCCN(C)C)c2c1[nH]c1ccc(O)cc12 [Derivative No. 10] ; field requested: T/C %
141

Query (molecule): Cc1cnc(NCCCN(C)C)c2c1[nH]c1ccc(O)cc12 [Derivative No. 9] ; field requested: T/C %
131

Query (molecule): "Cc1cnc(NCCCN(C)C)c2c3cc(O)ccc3n(C)c12" ; field requested: T/C %
134

Query (molecule): "CCN(CC)CCCNc1ncc(C)c2c1c1cc(O)ccc1n2C" ; field requested: T/C %
145

Query (molecule): "CCN(CC)CCCNc1ncc(C)c2[nH]c3ccc(O)cc3c12" ; field requested: T/C %
124
